- test target: CDK1 CCNB1 (human) (UniProt P06493+P14635)
- Sequence (P06493 whole entry, looked up): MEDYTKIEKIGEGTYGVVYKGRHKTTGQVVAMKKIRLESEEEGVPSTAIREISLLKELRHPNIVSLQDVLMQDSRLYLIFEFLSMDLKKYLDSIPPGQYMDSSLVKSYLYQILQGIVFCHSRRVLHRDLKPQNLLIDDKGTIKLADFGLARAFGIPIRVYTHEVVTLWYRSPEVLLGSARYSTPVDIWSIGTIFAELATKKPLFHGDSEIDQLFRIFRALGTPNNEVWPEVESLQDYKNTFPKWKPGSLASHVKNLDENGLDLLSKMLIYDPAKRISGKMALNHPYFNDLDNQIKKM
- Sequence (P14635 whole entry, looked up): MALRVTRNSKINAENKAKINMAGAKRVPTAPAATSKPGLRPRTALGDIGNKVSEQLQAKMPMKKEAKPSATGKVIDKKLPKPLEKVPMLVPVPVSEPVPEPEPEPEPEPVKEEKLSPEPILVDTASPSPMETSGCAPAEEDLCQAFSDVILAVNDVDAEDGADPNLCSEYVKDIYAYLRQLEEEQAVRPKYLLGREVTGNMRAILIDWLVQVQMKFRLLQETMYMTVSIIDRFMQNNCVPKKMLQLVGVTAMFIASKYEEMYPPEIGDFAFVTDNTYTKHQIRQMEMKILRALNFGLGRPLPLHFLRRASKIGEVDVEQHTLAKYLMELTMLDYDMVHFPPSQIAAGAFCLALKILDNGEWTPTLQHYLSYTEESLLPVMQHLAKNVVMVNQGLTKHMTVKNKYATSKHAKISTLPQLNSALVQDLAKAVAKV
- assay comment: radiometric filter-binding kinase assay, Kinase HotSpot
- condition notes: compound 0.5 µM; ATP 10 µM

| structure smiles string | residual activity / % |
| --- | --- |
| COc1cc2c(Nc3ccc(Br)cc3F)ncnc2cc1OCC1CCN(C)CC1 | 102 |
| c1ccc(-c2cnc(Nc3ccc(OCCN4CCCC4)cc3)s2)cc1 | 85.1 |
| O=C(c1ccccc1)c1ccc(N2CCOCC2)cc1O | 92.3 |
| N#CCCc1ccc2c(c1)-c1[nH]c3ccc([N+](=O)[O-])cc3c1CC(=O)N2 | 9.89 |
| COc1cc2c(N3CCN(C(=O)Nc4ccc(OC(C)C)cc4)CC3)ncnc2cc1OCCCN1CCCCC1 | 97.1 |
| N/C(=N\N=C/c1ccc(-c2cccc([N+](=O)[O-])c2)o1)N[N+](=O)[O-] | 87.9 |
| CC(C)(C)n1nc(Cc2cccc3ccccc23)c2c(N)ncnc21 | 107 |
